Exercise: for every item that follows, state its recorded STK11 functional score.
B1: library; numbered along this chain (parent)
chain: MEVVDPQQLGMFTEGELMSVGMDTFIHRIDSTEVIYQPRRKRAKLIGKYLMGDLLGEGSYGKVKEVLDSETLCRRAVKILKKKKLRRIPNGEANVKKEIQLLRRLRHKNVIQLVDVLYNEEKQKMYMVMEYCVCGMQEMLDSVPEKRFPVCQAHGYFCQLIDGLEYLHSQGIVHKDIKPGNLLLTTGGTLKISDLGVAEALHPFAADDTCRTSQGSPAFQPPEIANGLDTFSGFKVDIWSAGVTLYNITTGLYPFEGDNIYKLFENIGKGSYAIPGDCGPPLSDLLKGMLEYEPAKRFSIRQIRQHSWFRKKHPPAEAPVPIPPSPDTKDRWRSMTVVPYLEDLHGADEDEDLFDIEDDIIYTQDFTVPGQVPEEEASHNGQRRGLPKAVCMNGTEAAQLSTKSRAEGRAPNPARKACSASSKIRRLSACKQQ

# Variants of: B1
# method_summary: STK11 functional score (HeLa growth suppression), rescaled enrichment; synonymous median = 1, nonsense median = 0 (normalised score)
# settings: with HeLa; variant type: missense
// keep it numeric: no unit symbol after the value

Looking up A218P , I found its STK11 functional score recorded as 0.529

get_value(item= Q214V , readout=STK11 functional score) returns 0.919

So, S334M ? Its STK11 functional score was 1.05

N90V yielded STK11 functional score of 1.17

Field STK11 functional score (entry I224V ) reads 0.835

The variant K81Y showed STK11 functional score equal to 1.29

Input Q305F . Output STK11 functional score: 1.51

The measured STK11 functional score associated with C132M reads 1.35

In plain terms, T24F has a documented STK11 functional score of 1.37

Short answer for Q305A : STK11 functional score was 1.33

Sure, the documented STK11 functional score for A417L is 1.51

According to the records, this variant Q159G displays STK11 functional score of 1.1

Reported STK11 functional score ( P387K ) = 1

H202S yielded STK11 functional score of 1.17

Y362T yielded STK11 functional score of 1.6

Query F148K yields STK11 functional score of -0.033

The reported value for T250G in terms of STK11 functional score is 0.834

Lab book: STK11 functional score of K108A noted as 1.25

// recorded STK11 functional score for K78V : -0.0951

# variant Y253L ; its STK11 functional score = 1.27

response.value for S240T (field: STK11 functional score) = 1.07

Kindly note the recorded STK11 functional score for D350Q , which is 1.49

The reported numbers originate from the supplement of paper PMC12338614.
